molecular target: beta-catenin (human); assay: cell-based or functional assay
Sequence (B6V8E6 146-665 limits assumed): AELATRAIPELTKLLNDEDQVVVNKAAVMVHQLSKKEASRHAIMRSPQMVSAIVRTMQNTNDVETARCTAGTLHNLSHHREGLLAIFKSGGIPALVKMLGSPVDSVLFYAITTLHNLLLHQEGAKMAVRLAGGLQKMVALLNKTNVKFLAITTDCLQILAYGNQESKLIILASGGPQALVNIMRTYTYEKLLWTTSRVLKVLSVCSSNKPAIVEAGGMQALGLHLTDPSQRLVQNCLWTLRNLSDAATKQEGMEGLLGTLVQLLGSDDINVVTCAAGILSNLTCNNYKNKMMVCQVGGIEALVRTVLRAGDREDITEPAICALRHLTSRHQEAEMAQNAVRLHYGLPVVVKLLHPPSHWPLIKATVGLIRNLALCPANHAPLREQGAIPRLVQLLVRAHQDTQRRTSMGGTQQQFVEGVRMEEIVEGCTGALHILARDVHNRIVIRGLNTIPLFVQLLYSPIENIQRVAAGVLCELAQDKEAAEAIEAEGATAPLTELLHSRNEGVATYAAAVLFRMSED
*1 amine or outer side, *2 acyl side, *3 side chain or, on linkers, in order; H or OH if unused. Bridges are numbered along the chain shown (N, C = ends). Primed or numbered codes have the meaning given here. [ ]: non-standard residue; d: D form. PyrS2(6) = (S)-3-amino-1-((pent-4-en-1-yloxy)carbonyl)pyrrolidine-3-carboxylic acid, stapled with another olefin-containing amino acid residue through the olefin group, O=C(OCCCC=[*:3])N1CC[C@@](N[*:1])(C(=O)[*:2])C1; B5(4) = 2-amino-2-(pent-4-en-1-yl)hept-6-enoic acid, stapled through each of its two olefin groups with other olefin-containing amino acid residues, O=C(C(CCCC=[*:3])(CCCC=[*:4])N[*:1])[*:2]; PyrS2″ = (S)-3-amino-1-((pent-4-en-1-yloxy)carbonyl)pyrrolidine-3-carboxylic acid (olefin stapling residue), C=CCCCOC(=O)N1CC[C@@](N[*:1])(C(=O)[*:2])C1; PyrS2 = (S)-3-amino-1-((pent-4-en-1-yloxy)carbonyl)pyrrolidine-3-carboxylic acid, olefin staple residue, C=CCCCOC(=O)N1CC[C@@](N[*:1])(C(=O)[*:2])C1; 2F3MeF″ = aromatic residue, Cc1cccc(C[C@H](N[*:1])C(=O)[*:2])c1F; Phe(3-COOH) = N[C@@H](Cc1cccc(C(=O)O)c1)C(=O)O; 2F3MeF = Cc1cccc(C[C@H](N[*:1])C(=O)[*:2])c1F; Bta = N[C@@H](Cc1csc2ccccc12)C(=O)O; αAllylPro = C=CC[C@@]1(C(=O)O)CCCN1; tBuAla = CC(C)(C)C[C@H](N)C(=O)O; TriAzLys(3) = not defined here; 2F3MeF(4) = Phe analogue; BztA″ = aromatic residue; TfeGA = not defined here; GlnR = not defined here; sAla = not defined here; B5 = not defined here
OUTCOME MEASURE: NanoBRET Abs IC50

// worked examples, NanoBRET Abs IC50 included
| BINDER | NanoBRET Abs IC50 |
| --- | --- |
| Ac-[αAllylPro]D[tBuAla][B5(4)]D[TfeGA]VAFK[PyrS2″][2F3MeF][Bta][GlnR]A-NH2 (bridge 10-14; not fully specified (bridges); reading uncertain; also: Lys*3 and GlnR*3 marked *3) [I-124] | > 10 µM |
| Ac-[αAllylPro]D[tBuAla][B5]D[Phe(3-COOH)][GlnR]AFL[PyrS2][2F3MeF][Bta][GlnR](29N2spiroundecane)A-NH2 (staple 1-4, 4-11 (inferred); not fully specified; printed as Ac-PL3-Asp-Npg-B5-Asp-3COOHF-GlnR-Ala-Phe-Leu-PyrS2-2F3MeF-BztA-[29N2spiroundecane]GlnR-Ala-NH2; reading uncertain; also: staple C=C reduced to CH2-CH2) [I-134] | > 10 µM |

Task item: Looking for the measured NanoBRET Abs IC50 of Ac-[αAllylPro]D[tBuAla][B5]D[Phe(3-COOH)][GlnR]AFL[PyrS2″][2F3MeF″][BztA″][(39N2spiroundecane)GlnR]A-NH2 (reading uncertain; also: staple links not given here, printed as Ac-PL3-Asp-Npg-B5-Asp-3COOHF-GlnR-Ala-Phe-Leu-PyrS2-2F3MeF-BztA-[39N2spiroundecane]GlnR-Ala-NH2) [I-130] , can you help?
Reply: > 10 µM

Task item: Looking for the measured NanoBRET Abs IC50 of Ac-[αAllylPro]D[tBuAla][B5(4)]D[Phe(3-COOH)][TriAzLys(3)]AF[sAla][PyrS2(6)][2F3MeF(4)][Bta]Q-NH2 (triazole 7-10; not fully specified (bridges); printed as Ac-PL3-Asp-Npg-B5-Asp-3COOHF-TriAzLys*3-Ala-Phe-sAla*3-PyrS2-2F3MeF-BztA-Gln-NH2; reading uncertain) [I-31] , can you help?
Reply: > 10 µM

Task item: Looking for the measured NanoBRET Abs IC50 of Ac-[αAllylPro]D[tBuAla][B5]D[Phe(3-COOH)][GlnR]AFL[PyrS2″][2F3MeF″][BztA″][GlnR](29N2spiroundecane)A-NH2 (reading uncertain; also: staple links not given here, printed as Ac-PL3-Asp-Npg-B5-Asp-3COOHF-GlnR-Ala-Phe-Leu-PyrS2-2F3MeF-BztA-[29N2spiroundecane]GlnR-Ala-NH2) [I-131] , can you help?
Reply: > 10 µM

Where do these numbers come from? They come from patent US20260207704A1.
